- Experimental System: human GLP-1 receptor (human, UniProt P43220 24-463)
- Assay Method Text: cell-based or functional assay
Numbered stars: 1 amine (or outer) side, 2 acyl side, 3 side chain; on linkers, the order of the positions; unused ones are H or OH. Square brackets hold non-standard residues; d marks the D form. Side chains are listed from the residue outwards. Ends that are not written are not given here. * marks the point of attachment. γGlu = O=C(O)[C@H](CCC(=O)[*:2])N[*:1]; Palmitoyl = CCCCCCCCCCCCCCCC(=O)*; gAAA = not defined here; AEEA = NCCOCCOCC(=O)O; Aib = CC(C)(N)C(=O)O
Readout Kind: EC50 hGLP-1R (cAMP formation) (pM)
Give the quantity in pM, number only.

Use the examples below as a reference point.
H[Aib]QGTFTSDLSKLK([γGlu-AEEA-gAAA-Palmitoyl])EEQRQ[Aib]EFIEWLKAGGHPS[Aib]KPPPK-NH2 (reading uncertain) [SEQ ID NO: 22] : 2.1
H[Aib]QGTFTSDLSKLK([γGlu-AEEA-gAAA-Palmitoyl])EKQRQ[Aib]EFIEWLKA[dA]GHPS[Aib]KPPPK-NH2 (reading uncertain) [SEQ ID NO: 21] : 4.2
H[Aib]QGTFTSDLSKLK([γGlu-AEEA-gAAA-Palmitoyl])EEQRQ[Aib]EFIEWLKA[dA]GHPS[Aib]KPPPK-NH2 (reading uncertain) [SEQ ID NO: 23] : 1

Okay, next one:
## Input # get_value(readout='EC50 hGLP-1R (cAMP formation)', item= H[Aib]QGTFTSDLSKLK([γGlu-AEEA-gAAA-Palmitoyl])EKQRQ[Aib]EFIEWLKAGGHPS[Aib]KPPPK-NH2 (reading uncertain) [SEQ ID NO: 20] )
## Output 2.4
